Biological target: T1, human plasma kallikrein (full length, active) (human, UniProt P03952 20-390; P03952 391-638)
T1 construct: two disulfide linked polypeptides; also called Full length pKal; pKal
T1 sequence (P03952 20-390, chain 1 of 2): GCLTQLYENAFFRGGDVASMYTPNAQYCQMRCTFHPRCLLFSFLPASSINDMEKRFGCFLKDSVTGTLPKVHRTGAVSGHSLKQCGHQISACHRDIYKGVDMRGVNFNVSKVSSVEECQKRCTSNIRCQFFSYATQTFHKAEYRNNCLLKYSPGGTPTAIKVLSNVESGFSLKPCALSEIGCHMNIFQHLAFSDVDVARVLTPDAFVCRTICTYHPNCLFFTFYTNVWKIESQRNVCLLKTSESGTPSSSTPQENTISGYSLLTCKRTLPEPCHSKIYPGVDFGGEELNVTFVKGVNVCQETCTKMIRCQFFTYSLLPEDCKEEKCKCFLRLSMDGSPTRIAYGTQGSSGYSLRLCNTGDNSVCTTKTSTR
T1 sequence (P03952 391-638, chain 2 of 2): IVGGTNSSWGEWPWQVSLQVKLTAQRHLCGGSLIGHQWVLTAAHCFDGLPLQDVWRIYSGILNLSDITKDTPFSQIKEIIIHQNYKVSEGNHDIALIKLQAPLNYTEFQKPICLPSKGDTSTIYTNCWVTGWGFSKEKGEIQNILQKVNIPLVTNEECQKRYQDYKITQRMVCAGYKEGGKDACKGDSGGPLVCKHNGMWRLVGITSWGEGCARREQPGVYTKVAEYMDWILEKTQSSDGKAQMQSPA
Assay: Ki,app: enzyme inhibition, fluorescent substrate, 2 h pre-incubation at 30 C, tight-binding fit
EXPERIMENTAL_ENDPOINT: Ki (nM)

INSERT INTO assay_data (binder, experimental_endpoint, assay_result) VALUES
  ('X115-E09 (antibody, V domains shown, only variable domains given; also called 559A-X115-E09; 559A-X0115-E09) VH: EVQLLESGGGLVQPGGSLRLSCAASGFTFSHYLMTWVRQAPGKGLEWVSYISPSGGHTIYADSVKGRFTISRDNSKNTLYLQMNSLRAEDTAVYYCARVAQGIAARSRTSSVDQWGQGTLVTVSS VL: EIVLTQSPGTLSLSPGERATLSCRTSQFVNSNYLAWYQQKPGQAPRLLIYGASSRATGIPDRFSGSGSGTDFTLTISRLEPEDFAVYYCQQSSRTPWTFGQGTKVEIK', 'Ki', 0.34),
  ('X115-H06 (antibody, V domains shown, only variable domains given; also called 559A-X115-H06; 559A-X0115-H06) VH: EVQLLESGGGLVQPGGSLRLSCAASGFTFSHYLMTWVRQAPGKGLEWVSYISPSGGHTIYADSVKGRFTISRDNSKNTLYLQMNSLRAEDTAVYYCARVAQGISARSRTSYFDYWGQGTLVTVSS VL: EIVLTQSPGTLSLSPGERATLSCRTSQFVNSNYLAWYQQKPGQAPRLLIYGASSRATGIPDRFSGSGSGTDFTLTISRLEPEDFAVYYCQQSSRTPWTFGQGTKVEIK', 'Ki', 0.35),
  ('X115-A03 (antibody, V domains shown, only variable domains given; also called 559A-X115-A03; 559A-X0115-A03) VH: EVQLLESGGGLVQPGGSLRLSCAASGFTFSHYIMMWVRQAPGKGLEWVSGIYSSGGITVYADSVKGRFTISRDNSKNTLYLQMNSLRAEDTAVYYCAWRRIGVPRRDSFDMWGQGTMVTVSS VL: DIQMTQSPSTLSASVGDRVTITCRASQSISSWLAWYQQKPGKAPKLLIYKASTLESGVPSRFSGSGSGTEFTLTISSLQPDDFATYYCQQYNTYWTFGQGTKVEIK', 'Ki', 0.16);
